Data provenance is ChEMBL document CHEMBL1921778.

Listing of recorded concentration at 1 h by entry.
Test: Plasma concentration in mouse at 30 mg/kg, sc after 1 hr
Assay type: ADME, organism-based
Design: dose 30 mg/kg, route subcutaneous

{"compound": "CN1CC(C)(c2cccc(NC(=O)c3ccc(Cl)cn3)c2)N=C(N)C1=O (racemic)", "concentration at 1 h, ng/mL": 993}
{"compound": "CN1CC(N)=NC(C)(c2cccc(NC(=O)c3ccc(Cl)cn3)c2)C1=O (racemic)", "concentration at 1 h, ng/mL": 4630}

###

Test: Drug uptake in mouse brain at 60 mg/kg, sc after 2 hrs
Assay type: ADME, organism-based
Set-up: dose 60 mg/kg, route subcutaneous
Details: read-out: Drug uptake

{"compound": "CN1CC(C)(c2cc(NC(=O)c3ccc(Cl)cn3)ccc2F)N=C(N)C1=O (single isomer, unassigned; enantiomer 2)", "concentration at 2 h": "3340 ng/g"}
